target: recombinant human IL-6 (human, UniProt P05231 30-212); assay: SPR, IL-6 on CM5 chip, Fab lysate, 25 C
Sequence (P05231 30-212 limits assumed): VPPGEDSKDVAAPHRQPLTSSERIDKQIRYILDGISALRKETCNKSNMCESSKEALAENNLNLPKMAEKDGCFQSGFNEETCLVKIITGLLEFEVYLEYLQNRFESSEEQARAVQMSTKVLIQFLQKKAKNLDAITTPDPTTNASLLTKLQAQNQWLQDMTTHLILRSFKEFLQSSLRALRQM
REPORTED ENDPOINT: koff (s⁻¹)
Enter your answer as a number in s⁻¹; do not include the unit.

Data point: anti-IL-6 Fab, light chain A54L (Fab, V domains shown, see m39) VH: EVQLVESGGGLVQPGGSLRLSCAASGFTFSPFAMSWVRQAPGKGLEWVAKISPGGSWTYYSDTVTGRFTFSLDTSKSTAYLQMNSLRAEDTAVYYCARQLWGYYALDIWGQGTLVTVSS VL: DIQLTQSPSSLSASVGDRVTITCSASISVSYMYWYQQKPGKAPKLLIYDMSNLLSGVPSRFSGSGSGTDFTLTISSLQPEDFATYYCMQWSGYPYTFGQGTKVEIK ; koff = 0.00489

Data point: anti-IL-6 Fab, light chain Y48W (Fab, V domains shown, see m39) VH: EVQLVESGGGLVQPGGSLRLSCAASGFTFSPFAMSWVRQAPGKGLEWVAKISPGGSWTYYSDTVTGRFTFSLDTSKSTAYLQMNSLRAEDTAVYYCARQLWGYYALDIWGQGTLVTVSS VL: DIQLTQSPSSLSASVGDRVTITCSASISVSYMYWYQQKPGKAPKLLIWDMSNLASGVPSRFSGSGSGTDFTLTISSLQPEDFATYYCMQWSGYPYTFGQGTKVEIK ; koff = 0.00563

Data point: anti-IL-6 Fab, light chain Q89A (Fab, V domains shown, see m39) VH: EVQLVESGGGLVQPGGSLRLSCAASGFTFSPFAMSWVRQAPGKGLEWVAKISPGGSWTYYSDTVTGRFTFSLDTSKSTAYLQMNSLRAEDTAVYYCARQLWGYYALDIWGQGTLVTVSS VL: DIQLTQSPSSLSASVGDRVTITCSASISVSYMYWYQQKPGKAPKLLIYDMSNLASGVPSRFSGSGSGTDFTLTISSLQPEDFATYYCMAWSGYPYTFGQGTKVEIK ; koff = 0.00585

Origin of measurements: patent US20240209076A1
